Hi there, I'd appreciate the recorded pIC50 for every entry that follows.
- TARGET_SYSTEM: Beta-secretase 1 (Homo sapiens)
- ASSAY_INFO: Inhibition of BACE
Answers are plain numbers, as −log10 of the molar value.

Please go through the list and note pIC50 for each molecule.
1. CC(=O)N[C@@H](Cc1ccccc1)[C@H](O)CN[C@H]1CC2(CCC2)Oc2ccc(CC(C)(C)C)cc21
2. CC(=O)N[C@@H](Cc1ccc(F)c(F)c1)[C@H](O)CN[C@H]1CC2(CCC2)Oc2ncc(CC(C)(C)C)cc21
3. CC(=O)N[C@@H](Cc1ccc(C(F)(F)F)c(F)c1)[C@H](O)CN[C@H]1CC2(CCC2)Oc2ncc(CC(C)(C)C)cc21 (mixture of isomers)
4. CC(=O)N[C@@H](Cc1ccc(F)c(C(F)(F)F)c1)[C@H](O)CN[C@H]1CC2(CCC2)Oc2ncc(CC(C)(C)C)cc21
5. CCc1ccc2c(c1)[C@@H](NC[C@@H](O)[C@H](Cc1ccccc1)NC(=O)c1cc(-c3ccccn3)c(=O)n(C3CCCC3)c1)CC1(CCC1)O2
6. CC(=O)N[C@@H](Cc1ccc(OC(F)(F)F)cc1)[C@H](O)CN[C@H]1CC2(CCC2)Oc2ncc(CC(C)(C)C)cc21

## Result
8.14
8.70
7.36
7.96
8.44
7.85

----------
Answer each item with its documented clearance.
- ASSAY_INFO: Clearance in rat at 2 mg/kg, iv
- Assay type: ADME, organism-based
- Parameters: dose 2 mg/kg, route intravenous
- ASSAY_SETUP: in vivo
Answers are plain numbers, in mL/min/kg.

>  <MOLECULAR_STRING>
CC(=O)N[C@@H](Cc1ccccc1)[C@H](O)CN[C@H]1CC2(CCC2)Oc2ncc(CC(C)(C)C)cc21

>  <clearance (mL/min/kg)>
88.3

$$$$

Now for a further compound.
## Task Supply recorded clearance for CC(=O)N[C@@H](Cc1ccc(F)cc1)[C@H](O)CN[C@H]1CC2(CCC2)Oc2ncc(CC(C)(C)C)cc21 here.
## Result 20

----------
Assign IC50 to each entry below.
- TARGET_SYSTEM: Beta-secretase 1 (Homo sapiens, UniProt P56817)
- Sequence (P56817 whole entry): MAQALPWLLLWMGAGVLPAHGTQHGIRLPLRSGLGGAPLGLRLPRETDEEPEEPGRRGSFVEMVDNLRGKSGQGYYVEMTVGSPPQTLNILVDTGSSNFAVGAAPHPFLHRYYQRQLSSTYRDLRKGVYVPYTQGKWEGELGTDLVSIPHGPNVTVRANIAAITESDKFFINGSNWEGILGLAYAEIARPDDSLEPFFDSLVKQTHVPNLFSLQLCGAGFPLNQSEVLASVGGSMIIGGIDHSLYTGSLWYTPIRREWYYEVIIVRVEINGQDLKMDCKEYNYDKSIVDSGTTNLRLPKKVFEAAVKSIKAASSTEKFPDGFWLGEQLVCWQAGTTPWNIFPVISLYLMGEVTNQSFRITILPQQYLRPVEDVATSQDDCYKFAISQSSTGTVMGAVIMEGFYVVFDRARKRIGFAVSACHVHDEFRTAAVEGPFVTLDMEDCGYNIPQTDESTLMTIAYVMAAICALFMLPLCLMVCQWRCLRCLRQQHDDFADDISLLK
- ASSAY_INFO: Inhibition of BACE by cells based assay
Give bare numbers, in nM.

Examples with their reported IC50 follow.
>  <MOLECULE>
CC(=O)N[C@@H](Cc1ccc(C(F)(F)F)c(F)c1)[C@H](O)CN[C@H]1CC2(CCC2)Oc2ncc(CC(C)(C)C)cc21 (mixture of isomers)

>  <READOUT_NUMBER>
160

$$$$
>  <MOLECULE>
CC(=O)N[C@@H](Cc1ccc(F)c(C(F)(F)F)c1)[C@H](O)CN[C@H]1CC2(CCC2)Oc2ncc(CC(C)(C)C)cc21

>  <READOUT_NUMBER>
18

$$$$
>  <MOLECULE>
CC(=O)N[C@@H](Cc1ccc(C)c(F)c1)[C@H](O)CN[C@H]1CC2(CCC2)Oc2ncc(CC(C)(C)C)cc21

>  <READOUT_NUMBER>
2.2

$$$$

--- query ---
## Task Enter measured IC50, system Beta-secretase 1 (Homo sapiens, UniProt P56817), for the molecule shown: CC(=O)N[C@@H](Cc1ccc(F)cc1F)[C@H](O)CN[C@H]1CC2(CCC2)Oc2ncc(CC(C)(C)C)cc21
## Result 18
